Reference source: patent US8207156B2

- assay.system: CB1 receptor
- Construct: IC50 [nM]; radioligand [3H]-CP55940
- assay.info: In-vitro determination of affinity to CB1/CB2-receptors (radioligand [3H]-CP55940 binding)
- test.settings: binding data per pharmacological methods part I, table does not say whether human transfected receptor or rat cerebellum, hydrochloride
pIC50: −log10 of the molar value. Structures can show the parent of a compound that is named as a salt.
// pIC50 lookup, one value per entry
measured.quantity: pIC50

molecule: Cl.O=C(NN1CCCCC1)C1=NN(c2ccc(Cl)cc2Cl)C(c2ccc(F)cc2)C1 (centres unmarked) [Example 135, hydrochloride]
result.number: 7.08
//
molecule: COc1ccc(C2CC(C(=O)NN3CC4CCCC4C3)=NN2c2ccc(Cl)cc2Cl)cc1.Cl (centres unmarked) [Example 109, hydrochloride]
result.number: 7.80
//
molecule: COc1ccc(C2CC(C(=O)NN3CCCCCC3)=NN2c2ccc(Cl)cc2Cl)cc1.Cl (centres unmarked) [Example 114, hydrochloride]
result.number: 7.62
//
molecule: CC1CCCC(C)N1NC(=O)C1=NN(c2ccc(Cl)cc2Cl)C(c2ccc(Cl)cc2)C1.Cl (centres unmarked) [Example 192, hydrochloride]
result.number: 6.30
//
molecule: Cl.O=C(NN1CC2CCCC2C1)C1=NN(c2ccc(Cl)cc2Cl)C(c2ccc(F)cc2)C1 (centres unmarked) [Example 91, hydrochloride]
result.number: 7.33
//
molecule: COc1ccc(C2CC(C(=O)NN3CCCCC3)=NN2c2ccc(Cl)cc2Cl)cc1.Cl (centres unmarked) [Example 106, hydrochloride]
result.number: 7.49
//
molecule: O=C(NN1CCCCC1)C1=NN(c2ccc(Cl)cc2Cl)C(c2ccc(Br)cc2)C1 (centres unmarked) [Example 60, hydrochloride]
result.number: 7.57
//
molecule: Cl.O=C(NN1CCc2ccccc21)C1=NN(c2ccc(Cl)cc2Cl)[C@@H](c2ccc(Cl)cc2)C1 [Example 181, hydrochloride]
result.number: 7.62
